# key: entry, value: φ (%)
Measurement Protocol: Quantum yield measurements versus Acridine Yellow in EtOH
Assay type: physicochemical
Recorded Conditions: MKCA compound library; quantum yield
Could you give me the number in %? Just the number is fine.

The examples below pair each entry with its known result.
CCCc1cn(-c2ccc3n2[B-](F)(F)[N+]2=C(N4CCCC4)C=CC2=C3c2ccc(NC(=O)CCl)cc2)nn1 = 4.60
O=C(CCl)Nc1ccc(C2=C3C=CC(NCc4cc(F)cc(F)c4)=[N+]3[B-](F)(F)n3c2ccc3-n2cc(CO)nn2)cc1 = 6.28

Consider the additional molecule presented here.
[in] Quick one: φ (%) of `Cc1ccccc1CNC1=[N+]2C(=C(c3ccc(NC(=O)CCl)cc3)c3ccc(-n4cc(CC5CCCCC5)nn4)n3[B-]2(F)F)C=C1` ?
[out] 30.95

====

# key: entry, value: λmax Emission (nm)
Measurement Protocol: Absorbance and fluorescence emission spectra (SpectraMax M2)
Type: physicochemical
Recorded Conditions: MKCA compound library; fluorescence emission maximum
Could you give me the number in nm? Just the number is fine.

The examples below pair each entry with its known result.
CC1CN(C2=[N+]3C(=C(c4ccc(NC(=O)CCl)cc4)c4ccc(-n5cc(CCc6ccccc6)nn5)n4[B-]3(F)F)C=C2)CC(C)O1 (stereo not shown) [MKCA20-19] = 583
CN(Cc1ccccc1)Cc1cn(-c2ccc3n2[B-](F)(F)[N+]2=C(NCc4cc(F)cc(F)c4)C=CC2=C3c2ccc(NC(=O)CCl)cc2)nn1 [MKCA412-18] = 560
CN(Cc1ccccc1)C1=[N+]2C(=C(c3ccc(NC(=O)CCl)cc3)c3ccc(-n4cc(C5CCCC5)nn4)n3[B-]2(F)F)C=C1 [MKCA195-5] = 580
O=C(CCl)Nc1ccc(C2=C3C=CC(N4CCCC4)=[N+]3[B-](F)(F)n3c2ccc3-n2cc(C3CCCC3)nn2)cc1 [MKCA215-5] = 574

[in] Quick one: λmax Emission (nm) of O=C(CCl)Nc1ccc(C2=C3C=CC(N4CCc5ccccc5C4)=[N+]3[B-](F)(F)n3c2ccc3-n2cc(CO)nn2)cc1 [MKCA66-70] ?
[out] 581

[in] Ok, now CCCCCC(O)c1cn(-c2ccc3n2[B-](F)(F)[N+]2=C(N4CCCC4)C=CC2=C3c2ccc(NC(=O)CCl)cc2)nn1 (stereo not shown) [MKCA215-69]
[out] 569

[in] Ok, now CCOc1ccccc1CNC1=[N+]2C(=C(c3ccc(NC(=O)CCl)cc3)c3ccc(-n4cc(CN(C)Cc5ccccc5)nn4)n3[B-]2(F)F)C=C1 [MKCA103-18]
[out] 561

====

# key: entry, value: φ (quantum yield)
Measurement Protocol: Quantum yield measurements versus Acridine Yellow in EtOH
Assay type: physicochemical
Recorded Conditions: BDCCA library, Table 4; excitation 460 nm
Could you give me the number in %? Just the number is fine.

CCCCCCCCc1cn(-c2ccc3n2[B-](F)(F)[N+]2=C(N4CCCCC4)C=CC2=C3c2ccc(NC(=O)CCl)cc2)nn1 = 0.7

[in] Quick one: φ (quantum yield) of `CC(C)(C)c1cn(-c2ccc3n2[B-](F)(F)[N+]2=C(N4CCCCC4)C=CC2=C3c2ccc(NC(=O)CCl)cc2)nn1` ?
[out] 0.7

[in] Ok, now `CN(Cc1ccccc1)Cc1cn(-c2ccc3n2[B-](F)(F)[N+]2=C(N4CCCCC4)C=CC2=C3c2ccc(NC(=O)CCl)cc2)nn1`
[out] 0.7

[in] Ok, now `O=C(CCl)Nc1ccc(C2=C3C=CC(N4CCCCC4)=[N+]3[B-](F)(F)n3c2ccc3-n2cc(CCc3ccccc3)nn2)cc1`
[out] 1.0

====

Measurement Protocol: Quantum yield measurements versus Acridine Yellow in EtOH
Format: physicochemical
Recorded Conditions: BDCCA library, Table 4; excitation 460 nm
Method: ^1H-NMR, ^19F-NMR and ^13C-NMR spectra were recorded on Bruker ACF300 (300 MHz), DPX300 (300 MHz) and AMX500 (500 MHz) spectrometers. High resolution mass spectra (ESI) were obtained on a Finnigan/MAT 95XL-T spectrometer. Spectroscopic and quantum yield data were measured on a SpectraMax M2 spectrophotometer (Molecular Devices). Data analysis was performed using GraphPrism 5.0. […]
# key: entry, value: φ (quantum yield)
Could you give me the number in %? Just the number is fine.

The examples below pair each entry with its known result.
O=C(CCl)Nc1ccc(C2=C3C=CC(N4CCCCC4)=[N+]3[B-](F)(F)n3c2ccc3-n2cc(C3(O)CCCC3)nn2)cc1 = 0.7
CCCCCCCc1cn(-c2ccc3n2[B-](F)(F)[N+]2=C(N4CCCCC4)C=CC2=C3c2ccc(NC(=O)CCl)cc2)nn1 = 1.0

[in] Quick one: φ (quantum yield) of `O=C(CCl)Nc1ccc(C2=C3C=CC(N4CCCCC4)=[N+]3[B-](F)(F)n3c2ccc3-n2cc(COc3ccccc3)nn2)cc1` ?
[out] 0.7
